Task for the reader: assign each of the following molecules its reported AC50.
Molecular target: Muscarinic acetylcholine receptor M1 (Homo sapiens); further: assay procedure not described here
Sequence (P11229 whole entry): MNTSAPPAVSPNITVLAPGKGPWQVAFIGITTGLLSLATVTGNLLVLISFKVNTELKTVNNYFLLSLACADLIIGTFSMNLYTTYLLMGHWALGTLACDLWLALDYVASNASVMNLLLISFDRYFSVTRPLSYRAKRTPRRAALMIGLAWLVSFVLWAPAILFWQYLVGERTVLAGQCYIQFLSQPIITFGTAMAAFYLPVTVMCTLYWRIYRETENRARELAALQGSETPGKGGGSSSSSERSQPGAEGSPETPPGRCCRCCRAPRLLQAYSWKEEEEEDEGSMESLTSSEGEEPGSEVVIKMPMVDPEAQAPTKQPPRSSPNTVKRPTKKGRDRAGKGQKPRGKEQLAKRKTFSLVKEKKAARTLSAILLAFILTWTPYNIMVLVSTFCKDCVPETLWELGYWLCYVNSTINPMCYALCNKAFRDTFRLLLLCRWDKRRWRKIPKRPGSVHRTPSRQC
Type: functional, cell-based

molecule=CN(C)C(=O)c1nc(CNC(=O)CN)n(-c2ccc(Cl)cc2C(=O)c2ccccc2Cl)n1 recorded_endpoint=AC50 assay_result="> 30 µM"

Now examine the next entry.
Reported AC50, molecule CC(=O)O[C@H]1C[C@H](O[C@H]2[C@@H](O)C[C@H](O[C@H]3[C@@H](O)C[C@H](O[C@H]4CC[C@@]5(C)[C@H](CC[C@@H]6[C@@H]5C[C@@H](O)[C@]5(C)[C@@H](C7=CC(=O)OC7)CC[C@]65O)C4)O[C@@H]3C)O[C@@H]2C)O[C@H](C)[C@H]1O[C@@H]1O[C@H](CO)[C@@H](O)[C@H](O)[C@H]1O [LANATOSIDE C] : ____ > 30 µM

###

biological target: UniProt:P21728
Sequence (P21728 whole entry): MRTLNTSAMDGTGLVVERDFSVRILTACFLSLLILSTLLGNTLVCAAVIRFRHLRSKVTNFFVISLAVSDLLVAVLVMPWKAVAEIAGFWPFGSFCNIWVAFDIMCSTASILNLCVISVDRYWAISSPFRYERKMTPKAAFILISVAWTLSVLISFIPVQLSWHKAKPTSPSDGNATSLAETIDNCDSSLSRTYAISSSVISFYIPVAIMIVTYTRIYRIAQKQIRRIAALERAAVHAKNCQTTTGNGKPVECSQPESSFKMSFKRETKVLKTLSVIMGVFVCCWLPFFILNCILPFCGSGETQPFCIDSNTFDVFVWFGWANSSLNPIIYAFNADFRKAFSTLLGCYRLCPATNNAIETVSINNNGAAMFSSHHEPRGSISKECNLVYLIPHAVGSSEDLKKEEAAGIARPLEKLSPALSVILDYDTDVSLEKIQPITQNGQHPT
*1 amine or outer side, *2 acyl side, *3 side chain or, on linkers, in order; H or OH if unused. Where a SMILES comes first, the peptide text is derived from it. Bridges are numbered along the chain shown (N, C = ends). [ ]: non-standard residue; d: D form. The star is where a group is joined. hTyr(3S-OH,4S-OH,3'-OSO3H) = N[C@H](C(=O)O)[C@H](O)[C@@H](O)c1ccc(O)c(OS(=O)(=O)O)c1; Orn(4R-OH,5R-OH) = O=C([C@H](C[C@@H](O)[C@@H](O)N[*:3])N[*:1])[*:2]; Pro(3S-OH,4S-Me) = C[C@H]1CN[C@H](C(=O)O)[C@H]1O; X1 = CCCCCOc1ccc(-c2cc(-c3ccc(C(=O)*)cc3)no2)cc1; Gln(3R-OH) = NC(=O)C[C@@H](O)[C@H](N)C(=O)O; Hyp = O=C(O)[C@@H]1C[C@@H](O)CN1
recorded_endpoint: AC50

molecule="CC(=O)/N=c1/sc(S(N)(=O)=O)nn1C [METHAZOLAMIDE]" assay_result="> 30 µM"
molecule=O=C(O)COc1nn(Cc2ccccc2)c2ccccc12 assay_result="> 30 µM"
molecule=CCOc1ccc2ccccc2c1C(=O)N[C@@H]1C(=O)N2[C@@H]1SC(C)(C)[C@@H]2C(=O)O assay_result="> 30 µM"
molecule="CC(c1ccc(Cl)c(Cl)c1)N1N=C(N)CC1=O (configuration not stated)" assay_result="> 30 µM"

Give AC50 for each of the items listed below.
1. CC(C1=C(CCN(C)C)Cc2ccccc21)c1ccccn1 (configuration not stated)
2. CCCCCOc1ccc(-c2cc(-c3ccc(C(=O)N[C@H]4C[C@@H](O)[C@@H](O)NC(=O)[C@@H]5[C@@H](O)[C@@H](C)CN5C(=O)[C@H]([C@H](O)CC(N)=O)NC(=O)[C@H]([C@H](O)[C@@H](O)c5ccc(O)c(OS(=O)(=O)O)c5)NC(=O)[C@@H]5C[C@@H](O)CN5C(=O)[C@H]([C@@H](C)O)NC4=O)cc3)no2)cc1 [MICAFUNGIN] (X1-[Orn(4R-OH,5R-OH)]T[Hyp][hTyr(3S-OH,4S-OH,3'-OSO3H)][Gln(3R-OH)][Pro(3S-OH,4S-Me)]; lactam 1-C)
3. CN(C)CCN(Cc1ccc(Cl)cc1)c1ccccn1
4. CCSc1ccc2c(c1)N(CCCN1CCN(C)CC1)c1ccccc1S2
5. Cc1cc2c(OCC(O)CNC(C)C)cccc2[nH]1 (configuration not stated) [MEPINDOLOL]
6. CC(N)CCCC(C)(C)O (configuration not stated)
7. CCN(CC)CCOC(=O)C(Cc1cccc2ccccc12)CC1CCCO1 (configuration not stated)
8. O=C(O)c1cc(=O)c2ccccc2o1

1. 6.52 µM
2. > 30 µM
3. 2.23 µM
4. 0.0079 µM
5. > 30 µM
6. > 30 µM
7. 23.5 µM
8. > 30 µM

###

target: Progesterone receptor (Homo sapiens, UniProt P06401); type: functional; further: assay procedure not described here
Sequence (P06401 whole entry): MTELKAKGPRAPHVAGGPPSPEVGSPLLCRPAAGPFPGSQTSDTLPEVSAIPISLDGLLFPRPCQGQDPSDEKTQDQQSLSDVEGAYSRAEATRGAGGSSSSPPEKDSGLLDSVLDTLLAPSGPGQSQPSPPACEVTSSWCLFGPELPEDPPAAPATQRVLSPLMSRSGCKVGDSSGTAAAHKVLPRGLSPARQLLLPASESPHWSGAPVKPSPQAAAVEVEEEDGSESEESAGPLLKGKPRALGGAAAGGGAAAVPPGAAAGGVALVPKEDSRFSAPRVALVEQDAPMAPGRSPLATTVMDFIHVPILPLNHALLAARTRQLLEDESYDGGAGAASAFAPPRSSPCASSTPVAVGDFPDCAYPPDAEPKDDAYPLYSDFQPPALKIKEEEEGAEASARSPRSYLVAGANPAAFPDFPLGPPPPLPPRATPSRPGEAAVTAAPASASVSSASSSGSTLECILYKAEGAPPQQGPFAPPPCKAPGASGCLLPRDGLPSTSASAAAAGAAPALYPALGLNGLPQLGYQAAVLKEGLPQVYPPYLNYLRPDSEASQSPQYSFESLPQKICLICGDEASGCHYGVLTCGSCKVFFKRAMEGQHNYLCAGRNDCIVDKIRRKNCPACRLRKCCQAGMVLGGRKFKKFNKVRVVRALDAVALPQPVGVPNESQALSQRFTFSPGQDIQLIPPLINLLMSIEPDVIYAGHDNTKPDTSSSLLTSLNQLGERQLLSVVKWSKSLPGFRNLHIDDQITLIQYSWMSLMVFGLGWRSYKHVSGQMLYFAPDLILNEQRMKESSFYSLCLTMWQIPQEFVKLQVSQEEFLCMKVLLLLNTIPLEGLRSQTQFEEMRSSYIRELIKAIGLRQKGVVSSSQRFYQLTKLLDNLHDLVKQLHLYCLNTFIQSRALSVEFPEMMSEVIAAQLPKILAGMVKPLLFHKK
recorded_endpoint: AC50

Previously resolved entries follow.
molecule="N=C(N)NCCCCCCC(=O)NC(O)C(=O)NCCCCNCCCN (stereo not drawn)" assay_result="> 30 µM"
molecule="NC(=O)CCC/N=C(\\c1ccc(Cl)cc1)c1cc(F)ccc1O [PROGABIDE]" assay_result="> 10 µM"
molecule=CCc1oc2ccccc2c1C(=O)c1cc(Br)c(O)c(Br)c1 assay_result="3.8 µM"
molecule=COc1ccc(Cc2nccc3cc(OC)c(OC)cc23)cc1OC assay_result="> 30 µM"
molecule=CC[C@H]1OC(=O)[C@H](C)[C@@H](O[C@H]2C[C@@](C)(OC)[C@@H](O)[C@H](C)O2)[C@H](C)[C@@H](O[C@@H]2O[C@H](C)C[C@H](N(C)C)[C@H]2O)[C@](C)(O)C[C@@H](C)/C(=N\OCOCCOC)[C@H](C)[C@@H](O)[C@]1(C)O assay_result="> 30 µM"

Dear reader, for each entry below, please note its AC50.
1. Nc1nc(F)nc2c1ncn2[C@@H]1O[C@H](COP(=O)(O)O)[C@@H](O)[C@@H]1O [FLUDARABINE PHOSPHATE]
2. CC(/C=C1\SC(=S)N(CC(=O)O)C1=O)=C\c1ccccc1
3. Cc1cccc(N(C)C(=S)Oc2ccc3ccccc3c2)c1 [TOLNAFTATE]

1: > 30 µM; 2: > 30 µM; 3: > 30 µM

###

biological target: Gamma-aminobutyric acid receptor subunit alpha-1 (Rattus norvegicus, UniProt P62813); assay type: functional; further: assay procedure not described here
Sequence (P62813 whole entry): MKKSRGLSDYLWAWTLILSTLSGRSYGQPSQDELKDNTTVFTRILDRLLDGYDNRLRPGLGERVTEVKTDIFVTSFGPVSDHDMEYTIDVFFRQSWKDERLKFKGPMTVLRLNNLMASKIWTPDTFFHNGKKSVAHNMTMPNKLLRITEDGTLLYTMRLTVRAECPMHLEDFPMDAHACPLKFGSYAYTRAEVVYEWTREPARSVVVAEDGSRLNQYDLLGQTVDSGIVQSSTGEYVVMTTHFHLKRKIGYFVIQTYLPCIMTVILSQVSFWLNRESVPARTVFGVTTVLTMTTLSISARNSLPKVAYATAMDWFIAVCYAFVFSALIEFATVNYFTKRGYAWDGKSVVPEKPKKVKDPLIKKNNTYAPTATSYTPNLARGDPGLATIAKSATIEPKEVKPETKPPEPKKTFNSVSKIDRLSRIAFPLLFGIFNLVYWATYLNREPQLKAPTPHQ
recorded_endpoint: AC50

Use the examples below as a reference point.
smiles_input=C[n+]1ccccc1/C=N/O target_entity="Gamma-aminobutyric acid receptor subunit alpha-1 (Rattus norvegicus, UniProt P62813)" recorded_endpoint=AC50 assay_result="> 30 µM"
smiles_input=C#C[C@]1(O)CC[C@H]2[C@@H]3CCC4=CC(=O)CCC4=C3C=C[C@@]21CC target_entity="Gamma-aminobutyric acid receptor subunit alpha-1 (Rattus norvegicus, UniProt P62813)" recorded_endpoint=AC50 assay_result="8.8 µM"
smiles_input=COc1cc(OC)c(C(=O)CCCN2CCCC2)c(OC)c1 target_entity="Gamma-aminobutyric acid receptor subunit alpha-1 (Rattus norvegicus, UniProt P62813)" recorded_endpoint=AC50 assay_result="> 30 µM"
smiles_input=CCN(CC)CC(=O)Oc1ccc(NC(C)=O)cc1 target_entity="Gamma-aminobutyric acid receptor subunit alpha-1 (Rattus norvegicus, UniProt P62813)" recorded_endpoint=AC50 assay_result="> 30 µM"
smiles_input=CNCC[C@H](Oc1cccc2ccccc12)c1cccs1 target_entity="Gamma-aminobutyric acid receptor subunit alpha-1 (Rattus norvegicus, UniProt P62813)" recorded_endpoint=AC50 assay_result="> 10 µM"
smiles_input=CO/N=C(\C(=O)N[C@@H]1C(=O)N2C(C(=O)[O-])=C(C[n+]3cccc4c3CCC4)CS[C@H]12)c1csc(N)n1 target_entity="Gamma-aminobutyric acid receptor subunit alpha-1 (Rattus norvegicus, UniProt P62813)" recorded_endpoint=AC50 assay_result="> 30 µM"
smiles_input=[H]/N=C(\N/C(=N/[H])NCCCCCCNC(=N)NC(=N)Nc1ccc(Cl)cc1)Nc1ccc(Cl)cc1 target_entity="Gamma-aminobutyric acid receptor subunit alpha-1 (Rattus norvegicus, UniProt P62813)" recorded_endpoint=AC50 assay_result="> 10 µM"
smiles_input=CC(C)(C)NC[C@H](O)COc1nsnc1N1CCOCC1 target_entity="Gamma-aminobutyric acid receptor subunit alpha-1 (Rattus norvegicus, UniProt P62813)" recorded_endpoint=AC50 assay_result="> 30 µM"

Kindly review the next molecule as well.
Any idea what AC50 came out for "NC(=O)c1ncn([C@@H]2O[C@H](CO)[C@@H](O)[C@H]2O)n1" on Gamma-aminobutyric acid receptor subunit alpha-1 (Rattus norvegicus, UniProt P62813)? > 10 µM

###

Observed AC50 for D(3) dopamine receptor (Homo sapiens), reported per entry below.

Known AC50 results, listed for orientation:
molecule=COc1ccc2c(c1)[C@]13CCCC[C@@H]1[C@H](C2)N(C)CC3 assay_result="> 30 µM"
molecule=CCCCNc1ccc(C(=O)OCCN(C)C)cc1 assay_result="22 µM"
molecule=CC(C)c1cc2c(cc1S(=O)(=O)O)[C@@]1(C)CCC[C@@](C)(C(=O)O)[C@@H]1CC2 assay_result="> 30 µM"
molecule="CC(C)CC(N(C)C)C1(c2ccc(Cl)cc2)CCC1 (configuration not stated)" assay_result="> 10 µM"

Please state AC50 for every molecule in the list that follows.
1. CCCNC(C)C(=O)Nc1ccccc1C (configuration not stated)
2. Cc1cc(CC(=O)O)n(C)c1C(=O)c1ccc(Cl)cc1 [ZOMEPIRAC]
3. Nc1nc(O)c2ncn(COC(CO)CO)c2n1

1. > 30 µM
2. > 30 µM
3. > 30 µM

Go through the items and report each one's AC50.
1. N=C(N)NCCCCCCC(=O)NC(O)C(=O)NCCCCNCCCN (configuration not stated)
2. CC(C)(C)NC[C@H](O)COc1nsnc1N1CCOCC1
3. [H]/N=C(\N/C(=N/[H])NCCCCCCNC(=N)NC(=N)Nc1ccc(Cl)cc1)Nc1ccc(Cl)cc1
4. CC(=O)OCC(CCn1cnc2cnc(N)nc21)COC(C)=O

1: > 30 µM; 2: > 30 µM; 3: 3.2 µM; 4: > 10 µM

Please look at the items below and tell me AC50 for each one, in order.
1. C[C@]12CC[C@H](O)CC1=CC[C@@H]1[C@@H]2CC[C@]2(C)C(c3cccnc3)=CC[C@@H]12
2. CC1(C)O[C@@H]2C[C@H]3[C@@H]4C[C@H](F)C5=CC(=O)C=C[C@]5(C)[C@H]4[C@@H](O)C[C@]3(C)[C@]2(C(=O)CO)O1 [FLUNISOLIDE]
3. CC(=O)Nc1c(I)c(C(=O)N[C@H]2C(O)O[C@H](CO)[C@@H](O)[C@@H]2O)c(I)c(N(C)C(C)=O)c1I (some centres not stated) [METRIZAMIDE]
4. COC1=C(OC)C(=O)C(CCCCCCCCCCO)=C(C)C1=O

["> 30 µM", "> 30 µM", "> 30 µM", "> 10 µM"]

Can you give me AC50 for all of these, one by one?
1. CN1[C@@H]2CC[C@H]1C[C@@H](OC(=O)c1c[nH]c3ccccc13)C2
2. CC(C)C[C@H](CN)CC(=O)O

["> 30 µM", "> 30 µM"]

Fill in AC50 for each of the 6 molecules listed.
1. CC(=O)/N=c1/sc(S(N)(=O)=O)nn1C [METHAZOLAMIDE]
2. O=C(O)c1ccccc1Nc1cccc(C(F)(F)F)c1
3. CC(C)=CCOc1ccc(/C=C/C(=O)c2ccc(OCC=C(C)C)cc2OCC(=O)O)cc1
4. CNCCCC1c2ccccc2C=Cc2ccccc21
5. CC(=O)Oc1ccccc1C(=O)Nc1ncc([N+](=O)[O-])s1 [NITAZOXANIDE]
6. CCCN(CC)C(CC)C(=O)Nc1c(C)cccc1C (configuration not stated)

1: > 30 µM; 2: 3.5 µM; 3: > 30 µM; 4: 0.85 µM; 5: 25 µM; 6: > 30 µM

Your task in this section: give AC50 for each listed record.
1. O=C(CCCN1CCC(n2c(O)nc3ccccc32)CC1)c1ccc(F)cc1
2. O=c1oc2ccccc2c(O)c1Cc1c(O)c2ccccc2oc1=O
3. COC(=O)[C@H](c1ccccc1Cl)N1CCc2sccc2C1
4. CC(=O)OCC(=O)[C@@]1(O)CC[C@H]2[C@@H]3CCC4=CC(=O)CC[C@]4(C)C3=CC[C@@]21C [ANECORTAVE ACETATE]
5. CCC(C)(Oc1ccc(C2(c3ccc(OC(C)(CC)C(=O)O)cc3)CCCCC2)cc1)C(=O)O (configuration not stated) [CLINOFIBRATE]

0.0053 µM
> 30 µM
> 30 µM
> 30 µM
> 30 µM

Provide the reported AC50 of each entry below, same order.
1. CNC(=O)Oc1ccc2c(c1)[C@]1(C)CCN(C)[C@@H]1N2C
2. CO[C@@]1(NC(=O)Cc2cccs2)C(=O)N2C(C(=O)O)=C(COC(N)=O)CS[C@@H]21
3. COCCCOc1ccnc(C[S+]([O-])c2nc3ccccc3[nH]2)c1C (configuration not stated)
4. Nc1ccn([C@@H]2O[C@H](CO)[C@@H](O)C2(F)F)c(=O)n1
5. CN1CCN(c2c(F)cc3c(=O)c(C(=O)O)cn4c3c2SCC4)CC1
6. CS(=O)(=O)OCCCCOS(C)(=O)=O
7. Clc1ccc(C(Cn2ccnc2)OCc2ccc(Sc3ccccc3)cc2)c(Cl)c1 (configuration not stated)
8. CN(c1nccc(=O)[nH]1)C1CCN(c2nc3ccccc3n2Cc2ccc(F)cc2)CC1

1. > 30 µM
2. > 30 µM
3. > 10 µM
4. > 30 µM
5. > 30 µM
6. > 30 µM
7. 30 µM
8. > 30 µM

State the recorded AC50 for this entry: CC(C)(C)NCC(O)c1cc(Cl)c(N)c(Cl)c1 (configuration not stated) > 30 µM

Value source: ChEMBL document CHEMBL5291721
